- target-desc: Enoyl-[acyl-carrier-protein] reductase [NADPH] FabI (Staphylococcus aureus) (UniProt Q6GI75)
- Sequence (whole entry): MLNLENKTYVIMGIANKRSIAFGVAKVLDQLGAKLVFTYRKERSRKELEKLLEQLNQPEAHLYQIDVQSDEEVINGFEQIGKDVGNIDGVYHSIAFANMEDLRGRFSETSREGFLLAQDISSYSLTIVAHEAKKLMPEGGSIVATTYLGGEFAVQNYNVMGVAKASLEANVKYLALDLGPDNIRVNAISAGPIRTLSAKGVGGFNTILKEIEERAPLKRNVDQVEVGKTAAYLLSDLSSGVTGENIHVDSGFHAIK
- assay-procedure: Inhibition of N-terminal his 6 tagged Staphylococcus aureus Fabi (1 to […] residues) expressed in Escherichia coli BL21 at 1 uM incubated for 30 mins in presence of NADPH by fluorescence based microplate reader analysis relative to control
Entries and their measured inhibition follow.
Answer format: numeric, % implied, no suffix.

Identify measured inhibition corresponding to Cn1c(C2CC(=O)N(c3cccc(F)c3Br)C2)nc2ccccc21 (stereo not given)
23.5

====

Entries and their measured MIC follow.
- Test system: Staphylococcus aureus
- assay-procedure: Antimicrobial activity against […] Staphylococcus aureus USA300 measured after 24 hrs by CLSI protocol based microdilution method
- Assay type: functional
Answer format: numeric, mg/L implied, no suffix.

Identify measured MIC corresponding to COc1c(Br)cccc1N1CC(c2nc3ccccc3n2C)CC1=O (stereo not given)
1

====

Entries and their measured MIC follow.
- System: Staphylococcus aureus
- assay-procedure: Antimicrobial activity against methicillin-susceptible Staphylococcus aureus ATCC29213 measured after 24 hrs by CLSI protocol based microdilution method
- Format: functional

Cn1c(C(=O)NCCC(=O)NCc2ccccc2)nc2ccccc21: > 32 µg/mL

Identify measured MIC corresponding to Cc1c(N)cccc1N1CC(c2nc3ccccc3n2C)CC1=O (stereo not given)
> 32 µg/mL

Identify measured MIC corresponding to Cn1c(C2CC(=O)N(Cc3ccccc3)C2)nc2ccccc21 (stereo not given)
> 32 µg/mL

Identify measured MIC corresponding to Cn1c(C2CC(=O)N(c3cccc(-c4ccccc4)c3)C2)nc2ccccc21 (stereo not given)
> 32 µg/mL

Identify measured MIC corresponding to Cn1c(C2CC(=O)N(c3ccc(F)c(F)c3)C2)nc2ccccc21 (stereo not given)
> 32 µg/mL

====

- target-desc: Enoyl-[acyl-carrier-protein] reductase [NADPH] FabI (Staphylococcus aureus) (UniProt Q6GI75)
- assay-procedure: Inhibition of N-terminal his 6 tagged Staphylococcus aureus Fabi (1 to […] residues) expressed in Escherichia coli BL21 at 1 uM incubated for 30 mins in presence of NADPH by fluorescence based microplate reader analysis relative to control
measurement-label: inhibition (%)
Answer format: numeric, % implied, no suffix.

Solved cases (5 shown):
CC(=O)c1ccc(N2CC(c3nc4ccccc4n3C)CC2=O)cc1 (configuration not stated): 2.8
CCn1c(C2CC(=O)N(c3cccc(Br)c3C)C2)nc2ccccc21 (configuration not stated): 82.5
Cn1c(C2CC(=O)N(c3ccc(N4CCOCC4)cc3)C2)nc2ccccc21 (configuration not stated): 8.2
Cn1c(C(=O)Nc2cccc(C(=O)NCc3ccccc3)c2)nc2ccccc21: 6.8
Cc1c(N)cccc1N1CC(c2nc3ccccc3n2C)CC1=O (configuration not stated): 6.1

Turning to the following compound.
Identify measured inhibition corresponding to Cn1c(CCC(=O)Nc2ccccc2)nc2ccccc21
7.7
